Origin of the recorded values: paper PMC11859825

target: recombinant human SphK1 (Homo sapiens, UniProt Q9NYA1); test: Fluorometric NBD-sphingosine sphingosine kinase inhibition assay, SphK1; details: read-out: SphK1 inhibition, 10 μM compound
Sequence (Q9NYA1 whole entry): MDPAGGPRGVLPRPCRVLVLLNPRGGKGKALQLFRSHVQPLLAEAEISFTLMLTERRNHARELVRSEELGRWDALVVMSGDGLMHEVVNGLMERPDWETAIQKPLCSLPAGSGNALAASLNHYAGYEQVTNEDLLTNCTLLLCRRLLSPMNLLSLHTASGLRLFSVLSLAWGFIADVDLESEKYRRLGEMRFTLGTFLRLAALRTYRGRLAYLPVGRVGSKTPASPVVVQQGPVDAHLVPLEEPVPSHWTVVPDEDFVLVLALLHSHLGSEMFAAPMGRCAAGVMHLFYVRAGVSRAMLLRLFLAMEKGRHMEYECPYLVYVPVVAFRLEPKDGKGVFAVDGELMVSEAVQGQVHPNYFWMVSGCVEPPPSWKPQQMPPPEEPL
measured attribute: inhibition at 10 µM (%)
The response must be a number in % with no trailing unit.

These solved cases illustrate the format of a correct answer.
inhibition at 10 µM in this record for Cc1ccc2c(n1)C(=O)C(Oc1ccc(F)c(F)c1)=CC2=O [Compound 9] : 20

inhibition at 10 µM in this record for Cc1ccc2c(n1)C(=O)C(Oc1ccc(F)c(Cl)c1)=CC2=O [Compound 10] : 0

inhibition at 10 µM in this record for Cc1ccc2c(n1)C(=O)C(Oc1ccc(Cl)c(Cl)c1)=CC2=O [Compound 8] : 26

inhibition at 10 µM in this record for COc1ccc(OC2=CC(=O)c3ccc(CN4CCC[C@@H]4CO)nc3C2=O)cc1 [Compound 20] : 63

inhibition at 10 µM in this record for COc1ccc(OC2=CC(=O)c3ccc(C)nc3C2=O)cc1 [Compound 4] : 69

***
inhibition at 10 µM in this record for O=C1C=C(Oc2ccc(F)cc2)C(=O)c2nc(CN3CCC[C@@H]3CO)ccc21 [Compound 21] : 70

* * *

molecular target: recombinant human SphK1 (Homo sapiens); experiment: Fluorometric NBD-sphingosine sphingosine kinase inhibition assay, SphK1; details: read-out: Spk1 % (inhibition), replicate A, 10 μM, Tables S3-S5
measured attribute: inhibition at 10 µM (%)
The response must be a number in % with no trailing unit.

These solved cases illustrate the format of a correct answer.
inhibition at 10 µM in this record for O=C1C=C(Oc2ccc(F)cc2)C(=O)c2nc(CN3CCC[C@@H]3CO)ccc21 [Compound 21] : 62

inhibition at 10 µM in this record for O=Cc1ccc2c(n1)C(=O)C(Oc1ccc(F)cc1)=CC2=O [Compound 15] : 6.2

inhibition at 10 µM in this record for Cc1ccc2c(n1)C(=O)C(Oc1ccc(C#N)cc1)=CC2=O [Compound 7] : 54.1

inhibition at 10 µM in this record for O=Cc1ccc2c(n1)C(=O)C(Oc1ccc(Br)cc1)=CC2=O [Compound 19] : -4.1

inhibition at 10 µM in this record for Cc1ccc2c(n1)C(=O)C(Oc1ccc(F)c(Cl)c1)=CC2=O [Compound 10] : -7.7

inhibition at 10 µM in this record for COc1ccc(OC2=CC(=O)c3ccc(C)nc3C2=O)cc1 [Compound 4] : 58.5

The record that follows has no inhibition at 10 µM shown yet.
inhibition at 10 µM in this record for Cc1ccc2c(n1)C(=O)C(Oc1ccc(F)cc1)=CC2=O [Compound 6] : 53.4

* * *

biological target: recombinant human SphK2 (Homo sapiens, UniProt Q9NRA0); experiment: Fluorometric NBD-sphingosine sphingosine kinase inhibition assay, SphK2; details: read-out: Spk2 % (inhibition), Average, 10 μM, Tables S3-S5
Please use Criterion met whenever inhibition at 10 µM is not below 20%, and Criterion not met whenever it is.

Lookup: Does the compound O=Cc1ccc2c(n1)C(=O)C(Oc1ccc(F)cc1)=CC2=O have recorded inhibition at 10 µM that is 20% or more?
Found: Criterion met

Lookup: Does the compound O=Cc1ccc2c(n1)C(=O)C(Oc1ccc(F)c(F)c1)=CC2=O have recorded inhibition at 10 µM that is 20% or more?
Found: Criterion not met

Lookup: Does the compound Cc1ccc2c(n1)C(=O)C(Oc1ccc(CCO)cc1)=CC2=O have recorded inhibition at 10 µM that is 20% or more?
Found: Criterion met

***
Lookup: Does the compound Cc1ccc2c(n1)C(=O)C(Oc1ccc(F)c(Cl)c1)=CC2=O have recorded inhibition at 10 µM that is 20% or more?
Found: Criterion not met

Lookup: Does the compound COc1ccc(OC2=CC(=O)c3ccc(C=O)nc3C2=O)cc1 have recorded inhibition at 10 µM that is 20% or more?
Found: Criterion met

Lookup: Does the compound O=C1C=C(Oc2ccc(F)cc2)C(=O)c2nc(CN3CCC[C@@H]3CO)ccc21 have recorded inhibition at 10 µM that is 20% or more?
Found: Criterion met

* * *

molecular target: recombinant human SphK2 (Homo sapiens); assay: Fluorometric NBD-sphingosine sphingosine kinase inhibition assay, SphK2; conditions: read-out: Spk2 % (inhibition), replicate B, 10 μM, Tables S3-S5
Please use 1 whenever inhibition at 10 µM is not below 40%, and -1 whenever it is.

For orientation, consider the following solved cases.
Lookup: Does the compound Cc1ccc2c(n1)C(=O)C(Oc1ccc(F)c(Cl)c1)=CC2=O [Compound 10] have recorded inhibition at 10 µM that is 40% or more?
Found: -1

Lookup: Does the compound COc1cccc(OC2=CC(=O)c3ccc(C=O)nc3C2=O)c1 [Compound 14] have recorded inhibition at 10 µM that is 40% or more?
Found: -1

Lookup: Does the compound O=Cc1ccc2c(n1)C(=O)C(Oc1ccc(F)cc1)=CC2=O [Compound 15] have recorded inhibition at 10 µM that is 40% or more?
Found: -1

Lookup: Does the compound COc1ccc(OC2=CC(=O)c3ccc(CN4CCC[C@@H]4CO)nc3C2=O)cc1 [Compound 20] have recorded inhibition at 10 µM that is 40% or more?
Found: 1

Lookup: Does the compound Cc1ccc2c(n1)C(=O)C(Oc1ccc(CCO)cc1)=CC2=O [Compound 11] have recorded inhibition at 10 µM that is 40% or more?
Found: -1

Lookup: Does the compound Cc1ccc2c(n1)C(=O)C(Oc1ccc(C#N)cc1)=CC2=O [Compound 7] have recorded inhibition at 10 µM that is 40% or more?
Found: 1

Lookup: Does the compound Cc1ccc2c(n1)C(=O)C(Oc1ccc(F)c(F)c1)=CC2=O [Compound 9] have recorded inhibition at 10 µM that is 40% or more?
Found: -1

Lookup: Does the compound O=Cc1ccc2c(n1)C(=O)C(Oc1ccc(F)c(F)c1)=CC2=O [Compound 18] have recorded inhibition at 10 µM that is 40% or more?
Found: -1

Lookup: Does the compound O=C1C=C(Oc2ccc(F)cc2)C(=O)c2nc(CN3CCC[C@@H]3CO)ccc21 [Compound 21] have recorded inhibition at 10 µM that is 40% or more?
Found: 1

Lookup: Does the compound Cc1ccc2c(n1)C(=O)C(Oc1ccc(F)cc1)=CC2=O [Compound 6] have recorded inhibition at 10 µM that is 40% or more?
Found: 1

***
Lookup: Does the compound COc1ccc(OC2=CC(=O)c3ccc(C)nc3C2=O)cc1 [Compound 4] have recorded inhibition at 10 µM that is 40% or more?
Found: -1

Lookup: Does the compound COc1cccc(OC2=CC(=O)c3ccc(C)nc3C2=O)c1 [Compound 5] have recorded inhibition at 10 µM that is 40% or more?
Found: 1

Lookup: Does the compound O=Cc1ccc2c(n1)C(=O)C(Oc1ccc(Br)cc1)=CC2=O [Compound 19] have recorded inhibition at 10 µM that is 40% or more?
Found: -1

* * *

We begin with a simple list: items and their reported inhibition at 10 µM.
Molecular target: recombinant human SphK2 (Homo sapiens, UniProt Q9NRA0)
Sequence (Q9NRA0 1-654): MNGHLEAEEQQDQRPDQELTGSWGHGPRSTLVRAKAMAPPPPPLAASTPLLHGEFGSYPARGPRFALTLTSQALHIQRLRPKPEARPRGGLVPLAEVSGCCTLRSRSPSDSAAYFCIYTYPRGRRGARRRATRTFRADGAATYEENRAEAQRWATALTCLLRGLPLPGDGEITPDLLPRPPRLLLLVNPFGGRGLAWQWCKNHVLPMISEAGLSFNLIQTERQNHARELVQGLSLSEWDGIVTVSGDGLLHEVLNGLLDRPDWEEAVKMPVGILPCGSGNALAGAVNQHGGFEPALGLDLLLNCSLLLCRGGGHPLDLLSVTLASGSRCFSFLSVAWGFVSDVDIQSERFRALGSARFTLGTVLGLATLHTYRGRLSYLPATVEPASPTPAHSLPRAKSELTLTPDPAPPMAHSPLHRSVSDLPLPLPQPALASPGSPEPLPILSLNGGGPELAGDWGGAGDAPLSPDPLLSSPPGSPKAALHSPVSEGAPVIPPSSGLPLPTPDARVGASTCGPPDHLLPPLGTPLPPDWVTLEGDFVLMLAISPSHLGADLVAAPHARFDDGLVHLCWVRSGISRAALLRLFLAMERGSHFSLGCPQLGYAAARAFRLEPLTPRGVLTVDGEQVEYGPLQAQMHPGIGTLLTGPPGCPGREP
Experiment: Fluorometric NBD-sphingosine sphingosine kinase inhibition assay, SphK2
Details: read-out: Spk2 % (inhibition), Average, 10 μM, Tables S3-S5
The response must be a number in % with no trailing unit.

These solved cases illustrate the format of a correct answer.
inhibition at 10 µM in this record for COc1ccc(OC2=CC(=O)c3ccc(CN4CCC[C@@H]4CO)nc3C2=O)cc1 : 81.6

inhibition at 10 µM in this record for O=Cc1ccc2c(n1)C(=O)C(Oc1ccc(Br)cc1)=CC2=O : 3.2

***
inhibition at 10 µM in this record for Cc1ccc2c(n1)C(=O)C(Oc1ccc(F)c(F)c1)=CC2=O : 25.2

inhibition at 10 µM in this record for Cc1ccc2c(n1)C(=O)C(Oc1ccc(Cl)c(Cl)c1)=CC2=O : 37.8

inhibition at 10 µM in this record for COc1ccc(OC2=CC(=O)c3ccc(C)nc3C2=O)cc1 : 36.8
